Source: patent US8263643B2

Biological target: SNARE complex (SNAP25, SynH3, Vps) (UniProt P60879+P63045+Q16623)
Construct: SynH3 (AF217197); Vps (NM012663); made in house; host or cells: E. coli (Codon (+) RIL, Novagen)
Sequence (P60879 whole entry): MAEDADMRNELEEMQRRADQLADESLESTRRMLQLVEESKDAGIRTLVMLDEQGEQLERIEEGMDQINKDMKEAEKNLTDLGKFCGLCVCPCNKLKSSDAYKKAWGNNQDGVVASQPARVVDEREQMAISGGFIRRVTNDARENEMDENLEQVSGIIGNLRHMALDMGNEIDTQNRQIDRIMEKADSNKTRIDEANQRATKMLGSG
Sequence (Q16623 192-254 limits assumed): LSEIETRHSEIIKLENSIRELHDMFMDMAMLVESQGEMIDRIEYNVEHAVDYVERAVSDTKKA
Sequence (P63045 2-94 limits assumed): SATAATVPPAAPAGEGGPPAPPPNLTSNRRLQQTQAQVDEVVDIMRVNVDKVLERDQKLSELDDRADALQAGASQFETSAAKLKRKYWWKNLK
Assay: SDS-PAGE analysis of SNARE complex formation
Type: biochemical
Details: molar concentration ratio phenolic compound:SNAP-25; average of at least three measurements
measure: Ratio for inhibition by 50% (IR50), SNARE complex formation

>>> print(df.to_string())
                            chemical_string  reading
0  O=c1oc2c(O)c(O)cc3c(=O)oc4c(O)c(O)cc1c4c23     27.8
1      O=C(/C=C/c1ccc(O)c(O)c1)c1ccc(O)cc1O     30.5

[A] O=c1c(O)c(-c2ccc(O)c(O)c2)oc2cc(O)cc(O)c12
[B] O=c1c(O)c(-c2cc(O)c(O)c(O)c2)oc2cc(O)cc(O)c12
[C] O=c1cc(-c2ccc(O)c(O)c2)oc2cc(O)cc(O)c12
**Query** Place the items in sequence of falling Ratio for inhibition by 50% (IR50), SNARE complex formation. Labels, ranked as asked.
**Result** C, A, B

----------
Molecular target: membrane fusion caused by SNARE (SNAP25, syntaxin 1A, VAMP2) (UniProt P60879+P63045+Q16623)
Construct: made in house; host or cells: E. coli (Codon (+) RIL, Novagen)
Sequence (P60879 whole entry, the tested form may be a part): as the sequence (P60879 whole entry) above
Sequence (Q16623 whole entry, the tested form may be a part): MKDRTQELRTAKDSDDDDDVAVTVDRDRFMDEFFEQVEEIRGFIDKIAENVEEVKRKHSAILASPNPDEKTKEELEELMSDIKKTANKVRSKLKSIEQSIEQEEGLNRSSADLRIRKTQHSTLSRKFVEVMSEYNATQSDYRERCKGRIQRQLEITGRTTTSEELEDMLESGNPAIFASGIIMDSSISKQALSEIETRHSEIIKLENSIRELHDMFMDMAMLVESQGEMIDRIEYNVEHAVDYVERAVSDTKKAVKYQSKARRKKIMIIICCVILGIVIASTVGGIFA
Sequence (P63045 whole entry, the tested form may be a part): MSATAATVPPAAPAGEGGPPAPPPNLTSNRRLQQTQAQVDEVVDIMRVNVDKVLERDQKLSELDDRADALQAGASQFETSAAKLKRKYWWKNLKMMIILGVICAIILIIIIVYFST
Assay: Membrane fusion assay with SNARE-reconstituted liposomes (fluorescence)
Assay type: biochemical
Settings: 20 μM phenolic compound; 100% = no inhibitor added; read-out: Membrane fusion caused by SNARE (% of fusion without inhibitor)
measure: remaining activity at 20 µM (%)

Some molecules with known remaining activity at 20 µM results, for comparison:
>>> print(df.to_string())
                                   molecule                      measure  reading
0  O=c1cc(-c2ccc(O)c(O)c2)oc2cc(O)cc(O)c12 [Luteolin]  remaining activity at 20 µM     65.5
1  COc1ccc([C@@H]2CC(=O)c3c(O)cc(O)cc3O2)cc1O [Hesperetin]  remaining activity at 20 µM      107
2  O=c1c(-c2ccc(O)cc2)coc2cc(O)cc(O)c12 [Genistein]  remaining activity at 20 µM      119

[P] O=c1oc2c(O)c(O)cc3c(=O)oc4c(O)c(O)cc1c4c23 [Ellagic acid]
[Q] O=C1c2c(O)cc(O)cc2O[C@H](c2ccc(O)c(O)c2)[C@H]1O [Taxifolin]
[R] Oc1cc(O)c2cc(O)c(-c3ccc(O)c(O)c3)[o+]c2c1 [Cyanidin]
[S] Oc1cc(O)c2cc(O)c(-c3cc(O)c(O)c(O)c3)[o+]c2c1 [Delphinidin]
**Query** Place the items in sequence of falling remaining activity at 20 µM. Labels, ranked as asked.
**Result** Q, S, P, R
(Q: 109%, S: 37.5%, P: 22%, R: 7.23%)

----------
Target: membrane fusion caused by SNARE (SNAP25, syntaxin 1A, VAMP2) (UniProt P60879+P63045+Q16623)
Construct: made in house; host or cells: E. coli (Codon (+) RIL, Novagen)
Test: Membrane fusion assay with SNARE-reconstituted liposomes (fluorescence)
Assay type: biochemical
Details: 20 μM phenolic compound; 100% = no inhibitor added; read-out: Membrane fusion caused by SNARE (% of fusion without inhibitor)
measure: remaining activity at 20 µM (%)

Some compounds with known remaining activity at 20 µM results, for comparison:
compound	remaining activity at 20 µM (%)
C[C@@H]1O[C@@H](O[C@H]2[C@H](Oc3cc(O)c4c(c3)O[C@H](c3ccc(O)cc3)CC4=O)O[C@H](CO)[C@@H](O)[C@@H]2O)[C@H](O)[C@H](O)[C@H]1O [Naringin]	107
O=C(/C=C/c1ccc(O)c(O)c1)O[C@@H]1C[C@](O)(C(=O)O)C[C@@H](O)[C@H]1O [Chlorogenic acid]	134
COc1cc2c(c(OC)c1OC)-c1c(cc(OC)c(OC)c1OC)C[C@](C)(O)[C@@H](C)C2 [Schizandrin]	116
Oc1ccc(-c2[o+]c3cc(O)cc(O)c3cc2O)cc1 [Pelargonidin]	92.4

[A] O=C(O)/C=C/c1ccc(O)cc1 [p-Coumaric acid]
[B] O=c1c(O)c(-c2ccc(O)c(O)c2)oc2cc(O)cc(O)c12 [Quercetin]
**Query** # compare remaining activity at 20 µM for A vs B ; return the one with the smaller value Please identify the chosen entry by its label.
**Result** B
(B: 33.4%, A: 123%)
